Provide the recorded log10(microsomal CLint at 1 µM) for the entries that follow.
Assay: in vitro
Settings: human, liver microsomes
// stored as log10 of microsomal CLint at 1 µM expressed in µL/min/mg

Q: May I ask what log10(microsomal CLint at 1 µM) has been recorded for `Clc1ccc2c(c1)CCCc1nnc([C@H]3CC[C@H](Oc4ccccn4)CC3)n1-2` ?
A: 0.85

Q: May I ask what log10(microsomal CLint at 1 µM) has been recorded for `Cc1cc([C@H]2CC[C@H](c3nnc4n3-c3ccc(Cl)cc3CCC4)CC2)no1` ?
A: 0.00

Q: May I ask what log10(microsomal CLint at 1 µM) has been recorded for `c1ccc(O[C@H]2CC[C@H](c3nnc4n3-c3ccccc3CCC4)CC2)nc1` ?
A: 0.90

Q: May I ask what log10(microsomal CLint at 1 µM) has been recorded for `Cc1cc([C@H]2CC[C@H](c3nnc4n3-c3ccccc3CCC4)CC2)no1` ?
A: -0.40

Q: May I ask what log10(microsomal CLint at 1 µM) has been recorded for COC(=O)CC1Cc2cc(Cl)ccc2-n2c1nnc2[C@H]1CC[C@H](Oc2ccccn2)CC1 (stereo not given in full) ?
A: 1.91

---

Assay: in vitro
Settings: NMRI, mouse, liver microsomes
Use 1.0 when the recorded microsomal CLint at 1 µM is no lower than 90 µL/min/mg; use 0.0 when it is lower.

Q: Form field: microsomal CLint at 1 µM at least 90 µL/min/mg? Entry: `O=C(C1CCN(c2ccccn2)CC1)N1CCNc2cc(Cl)ccc21`
A: 1.0

Q: Form field: microsomal CLint at 1 µM at least 90 µL/min/mg? Entry: `Clc1ccc2c(c1)CCc1nnc([C@H]3CC[C@H](Oc4ccccn4)CC3)n1-2`
A: 0.0

Q: Form field: microsomal CLint at 1 µM at least 90 µL/min/mg? Entry: `Cc1cc([C@H]2CC[C@H](c3nnc4n3-c3ccc(Br)cc3CCC4)CC2)no1`
A: 0.0

Q: Form field: microsomal CLint at 1 µM at least 90 µL/min/mg? Entry: `Clc1ccc2c(c1)CCCc1nnc([C@H]3CC[C@H](Oc4ccccn4)CC3)n1-2`
A: 1.0

Q: Form field: microsomal CLint at 1 µM at least 90 µL/min/mg? Entry: `CCc1ccc2c(c1)CCCc1nnc(C3CCN(c4ccccn4)CC3)n1-2`
A: 1.0

---

Experiment: in vitro
Conditions: Wistar, rat, liver microsomes
Provide the recorded microsomal CLint at 1 µM for the entries that follow.
Quote the value and follow it with the unit of measurement.

Q: May I ask what microsomal CLint at 1 µM has been recorded for `Cc1cc([C@H]2CC[C@H](c3nnc4n3-c3ccccc3CCC4)CC2)no1` ?
A: 125 µL/min/mg

Q: May I ask what microsomal CLint at 1 µM has been recorded for `CCc1ccc2c(c1)CCCc1nnc(C3CCN(c4ccccn4)CC3)n1-2` ?
A: 163 µL/min/mg

Q: May I ask what microsomal CLint at 1 µM has been recorded for `O=C(C1CCN(c2ccccn2)CC1)N1CCNc2cc(Cl)ccc21` ?
A: 404 µL/min/mg

Q: May I ask what microsomal CLint at 1 µM has been recorded for COC(=O)CC1Cc2cc(Cl)ccc2-n2c1nnc2[C@H]1CC[C@H](Oc2ccccn2)CC1 (some centres not stated) ?
A: 72 µL/min/mg

Q: May I ask what microsomal CLint at 1 µM has been recorded for `Brc1ccc2c(c1)CCCc1nnc([C@H]3CC[C@H](Oc4ccccn4)CC3)n1-2` ?
A: 110 µL/min/mg

Q: May I ask what microsomal CLint at 1 µM has been recorded for `Brc1ccc2c(c1)CCCc1nnc(C3CCN(c4ccccn4)CC3)n1-2` ?
A: 111 µL/min/mg

Q: May I ask what microsomal CLint at 1 µM has been recorded for `COc1nc2cc(Cl)ccc2n2c(C3CCN(c4ccccn4)CC3)nnc12` ?
A: 39 µL/min/mg

The reported measurements were obtained from ChEMBL document CHEMBL4665717.
